The values you see were collected from patent US7670991B2.

Test system: weeds
Experiment: Pre-emergence test, activity against weeds
Assay type: in vivo
Settings: soil sprayed 24 hours after sowing, rated after three weeks
test readout: activity against weeds

1) O=C1CCCC(O)=C1C(=O)c1ccc(Cl)c(NC(=O)N2CCOCC2)c1Cl strong activity
2) CN1CCN(C(=O)Nc2c(Cl)ccc(C(=O)C3C(=O)CCCC3=O)c2Cl)C1=O strong activity
3) CCN1CCN(C(=O)Nc2c(Cl)ccc(C(=O)C3=C(O)CCCC3=O)c2Cl)C1=O strong activity
4) CN(C)NC(=O)Nc1c(Cl)ccc(C(=O)C2=C(O)CCCC2=O)c1Cl strong activity
5) CON(C)C(=O)Nc1c(Cl)ccc(C(=O)C2=C(O)CCCC2=O)c1Cl strong activity
6) CN1CCCN(C(=O)Nc2c(Cl)ccc(C(=O)C3=C(O)CCCC3=O)c2Cl)C1=O strong activity
